// data source = PubChem BioAssay

- test-method-notes: inhibition of endothelial tube formation, primary screen, imaging, VEGF stimulated, CD31 staining, tube area, NPC library (AID 1117340)
- run-parameters: VEGF-stimulated ADSC/ECFC co-culture, at 10 µM
The source made the active and inactive calls.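 The calls were made as follows: active = compound that reduces growth-factor-driven endothelial tube area in a mixed cell culture, no cutoff stated; inactive = the rest.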
Give your call using only these classes: true for active, false for inactive

{"molecule": "CCCCCC1Nc2cc(C(F)(F)F)c(S(N)(=O)=O)cc2S(=O)(=O)N1 (centres undefined)", "class-name": "false"}
{"molecule": "N/C(=N\\N=C\\c1ccc(Cl)cc1)N/N=C/c1ccc(Cl)cc1", "class-name": "true"}
{"molecule": "Cc1noc(NS(=O)(=O)c2ccc(N)cc2)c1C", "class-name": "false"}
{"molecule": "CC(C)Cc1ccc(CC(=O)O)cc1", "class-name": "false"}
{"molecule": "CCC1(c2ccccc2)C(=O)NCNC1=O", "class-name": "false"}
{"molecule": "CCN(CC)C(=S)SSC(=S)N(CC)CC", "class-name": "false"}

Prompt: Recorded test call requested for "c1ccc2c(c1)CCc1ccccc1N2"
Response: false

Prompt: Next molecule up: "OC(Cn1cncn1)(Cn1cncn1)c1ccc(F)cc1F"
Response: false
